TEST NAME: Rat PK: plasma xanomeline after single subcutaneous (SC) dosing of xanomeline or xanomeline prodrugs at 1 mg/kg (Example A-1)
Type: in vivo, male Sprague-Dawley (SD) rats
MEASUREMENT CONTEXT: male, Sprague-Dawley, plasma, sc, xanomeline analyte in plasma, individual animal (Table 3), read-out: AUCINF_obs

{"columns": ["COMPOUND STRUCTURE STRING", "AUC(0-inf) [ng·h/mL]"],
 "data": [
  ["CCCCCCOc1nsnc1C1=CCCN(C)C1", 46]
]}

----------
TEST NAME: Rat PK: plasma xanomeline after subcutaneous (SC) dosing of xanomeline, prodrugs or pamoate salts at 5 mg/kg or 3.5 mg/kg (Example A-2)
Type: in vivo, male Sprague-Dawley (SD) rats
MEASUREMENT CONTEXT: male, Sprague-Dawley, plasma, sc, parent xanomeline dosed SC, Mean

{"columns": ["COMPOUND STRUCTURE STRING", "Tmax, min"],
 "data": [
  ["CCCCCCOc1nsnc1C1=CCCN(C)C1", 50]
]}
